target: EPHB2 (UniProt P29323); assay: phosphorylation enrichment, bacterial display (enrichment ratio); higher = better substrate or ligand; peptides without Tyr show the background;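 further: 11-residue human phosphosite peptides and single-mutation variants displayed on the E. coli surface, counted by deep sequencing, each peptide's frequency after selection divided by its frequency in the unselected input library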;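 further: frequency after pTyr selection over input frequency; kinase dosed for 20-30% of maximal phosphorylation in three min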
Sequence (P29323 whole entry, looked up): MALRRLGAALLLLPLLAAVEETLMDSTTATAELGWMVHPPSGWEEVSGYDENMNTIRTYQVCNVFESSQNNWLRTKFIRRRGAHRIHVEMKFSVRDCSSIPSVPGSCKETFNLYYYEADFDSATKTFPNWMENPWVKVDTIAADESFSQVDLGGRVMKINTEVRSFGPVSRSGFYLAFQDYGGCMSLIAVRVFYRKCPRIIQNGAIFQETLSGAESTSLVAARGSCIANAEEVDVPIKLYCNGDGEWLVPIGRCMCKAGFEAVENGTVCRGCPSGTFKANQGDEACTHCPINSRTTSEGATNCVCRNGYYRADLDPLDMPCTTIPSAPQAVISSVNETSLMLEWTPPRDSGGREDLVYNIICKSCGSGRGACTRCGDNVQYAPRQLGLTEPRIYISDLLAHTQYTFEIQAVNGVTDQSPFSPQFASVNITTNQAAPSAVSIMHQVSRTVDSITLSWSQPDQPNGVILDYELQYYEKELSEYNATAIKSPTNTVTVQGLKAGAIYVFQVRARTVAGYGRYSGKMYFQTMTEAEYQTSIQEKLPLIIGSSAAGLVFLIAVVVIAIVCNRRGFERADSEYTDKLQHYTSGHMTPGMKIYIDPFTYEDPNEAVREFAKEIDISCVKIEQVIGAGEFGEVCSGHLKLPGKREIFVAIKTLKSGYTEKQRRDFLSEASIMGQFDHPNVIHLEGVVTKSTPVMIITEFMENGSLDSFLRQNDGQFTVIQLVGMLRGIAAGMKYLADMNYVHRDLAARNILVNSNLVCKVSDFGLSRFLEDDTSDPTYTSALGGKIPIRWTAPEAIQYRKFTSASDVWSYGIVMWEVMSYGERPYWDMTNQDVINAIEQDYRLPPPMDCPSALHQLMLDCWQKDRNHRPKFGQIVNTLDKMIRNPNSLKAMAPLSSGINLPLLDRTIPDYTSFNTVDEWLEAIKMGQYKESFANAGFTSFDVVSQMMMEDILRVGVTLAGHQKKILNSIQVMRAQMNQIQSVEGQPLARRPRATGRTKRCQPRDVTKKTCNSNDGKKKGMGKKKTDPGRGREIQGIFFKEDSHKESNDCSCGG
Decide by phosphorylation enrichment: equal to or exceeding 0.7 means Satisfied, less means Not satisfied.

INSERT INTO assay_data (residues, discrete_label) VALUES
  ('VCDSNYSASRW [LRP5_Y1552_D1551N]', 'Satisfied'),
  ('SIFKDYFRFNF [PLA2G2D_Y85_YF]', 'Not satisfied'),
  ('PQIVKYRPDCI [LDHB_Y128_S129R]', 'Not satisfied'),
  ('RHNEIYEIKVD [LGR5_Y387]', 'Not satisfied'),
  ('PRDSGYSFETI [MAP1B_Y1921_S1917R_YF]', 'Satisfied'),
  ('IFRASYFRKGG [ALK_Y1282_YF]', 'Not satisfied'),
  ('PLQNTYNFNVL [SLC4A1_Y553_K551N_YF]', 'Satisfied');
